Target: BRAF^V600E protein (Homo sapiens, UniProt P15056, V600E)
Sequence (P15056 whole entry V600E): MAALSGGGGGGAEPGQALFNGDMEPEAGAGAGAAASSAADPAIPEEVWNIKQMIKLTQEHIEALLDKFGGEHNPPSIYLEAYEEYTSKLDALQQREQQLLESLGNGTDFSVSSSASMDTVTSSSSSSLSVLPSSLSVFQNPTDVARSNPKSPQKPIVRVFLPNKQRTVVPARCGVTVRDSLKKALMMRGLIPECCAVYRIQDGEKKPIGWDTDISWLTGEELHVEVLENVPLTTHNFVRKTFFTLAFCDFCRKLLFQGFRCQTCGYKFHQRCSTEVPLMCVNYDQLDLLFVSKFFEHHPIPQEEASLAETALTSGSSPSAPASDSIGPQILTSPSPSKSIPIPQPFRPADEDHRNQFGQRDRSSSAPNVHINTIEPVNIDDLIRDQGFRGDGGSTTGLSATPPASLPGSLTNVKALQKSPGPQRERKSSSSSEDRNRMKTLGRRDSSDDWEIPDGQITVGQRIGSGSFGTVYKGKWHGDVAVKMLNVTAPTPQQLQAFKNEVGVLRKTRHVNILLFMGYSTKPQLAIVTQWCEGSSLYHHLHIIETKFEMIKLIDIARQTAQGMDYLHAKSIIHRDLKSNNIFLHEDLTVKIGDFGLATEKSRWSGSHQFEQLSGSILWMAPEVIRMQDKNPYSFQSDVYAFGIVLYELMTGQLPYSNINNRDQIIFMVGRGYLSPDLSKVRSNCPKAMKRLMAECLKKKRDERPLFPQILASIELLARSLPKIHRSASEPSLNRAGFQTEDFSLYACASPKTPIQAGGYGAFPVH
Assay: HiBiT cellular BRAF V600E degradation assay
Format: cell-based
Conditions: A375.10 cells (HiBiT tag knocked in at N-terminal of BRAF V600E), 24 h incubation; concentration at which 50% of total cellular BRAF V600E is degraded
// reported log10(DC50) per item
Answers are given as log10 of DC50 in nM.

Worked cases, answers included:
compound	target.or.system	log10(DC50)
CCN(C)S(=O)(=O)Nc1ccc(F)c(C(=O)c2c[nH]c3ncc(-c4ccc(N5CCN(C(=O)NC6CCN(c7ccc(NC8CCC(=O)NC8=O)cc7F)CC6)CC5)nc4)cc23)c1F (stereo not shown)	BRAF^V600E protein (Homo sapiens, UniProt P15056, V600E)	1.18
CCN(C)S(=O)(=O)Nc1cccc(C(=O)c2c[nH]c3ncc(-c4ccc(N5CCN(C(=O)CC6(O)CCN(c7ccc(NC8CCC(=O)NC8=O)cc7F)CC6)CC5)cc4)cc23)c1F (stereo not shown)	BRAF^V600E protein (Homo sapiens, UniProt P15056, V600E)	0.94
CCN(C)S(=O)(=O)Nc1ccc(F)c(C(=O)c2c[nH]c3ncc(-c4cnc(N5CCC(OCC6CCN(c7ccc(NC8CCC(=O)NC8=O)cc7F)CC6)CC5)nc4)cc23)c1F (stereo not shown)	BRAF^V600E protein (Homo sapiens, UniProt P15056, V600E)	1.25
CCN(C)S(=O)(=O)Nc1cccc(C(=O)c2c[nH]c3ncc(-c4ccc(N5CCN(C(=O)NC6CCN(c7ccc(NC8CCC(=O)NC8=O)cc7F)CC6)CC5)nc4)cc23)c1F (stereo not shown)	BRAF^V600E protein (Homo sapiens, UniProt P15056, V600E)	0.47
CCN(C)S(=O)(=O)Nc1ccc(F)c(C(=O)c2c[nH]c3ncc(-c4cnc(N5CCC(NC(=O)CN6CCC(c7ccc(OC8CCC(=O)NC8=O)cc7)CC6)CC5)nc4)cc23)c1F (stereo not shown)	BRAF^V600E protein (Homo sapiens, UniProt P15056, V600E)	1.78
CCN(C)S(=O)(=O)Nc1ccc(F)c(C(=O)c2c[nH]c3ncc(-c4cnc(N5CCN(CCN6CCC(c7ccc(NC8CCC(=O)NC8=O)cc7)CC6=O)CC5)nc4)cc23)c1F (stereo not shown)	BRAF^V600E protein (Homo sapiens, UniProt P15056, V600E)	1.16
CCN(C)S(=O)(=O)Nc1ccc(F)c(C(=O)c2c[nH]c3ncc(-c4ccc(N5CCN(C(=O)CC6(O)CCN(c7ccc(NC8CCC(=O)NC8=O)cc7C(F)F)CC6)CC5)nc4)cc23)c1F (stereo not shown)	BRAF^V600E protein (Homo sapiens, UniProt P15056, V600E)	0.87
CCN(C)S(=O)(=O)Nc1ccc(F)c(C(=O)c2c[nH]c3ncc(-c4cnc(N5CCN(C(=O)NC6CCN(c7ccc(NC8CCC(=O)NC8=O)cc7F)CC6)CC5)nc4)cc23)c1F.O=C(O)C(F)(F)F (stereo not shown)	BRAF^V600E protein (Homo sapiens, UniProt P15056, V600E)	1.00
CCN(C)S(=O)(=O)Nc1ccc(F)c(C(=O)c2c[nH]c3ncc(-c4ccc(N5CCN(C(=O)CN6CCC(c7ccc(OC8CCC(=O)NC8=O)cn7)CC6)CC5)nc4)cc23)c1F (stereo not shown)	BRAF^V600E protein (Homo sapiens, UniProt P15056, V600E)	1.81

As a next step, examine the compound that follows.
Which log10(DC50) value is on record for CCC(C)S(=O)(=O)Nc1ccc(F)c(C(=O)c2c[nH]c3ncc(-c4ccc(N5CCN(C(=O)CN6CCC(c7ccc(NC8CCC(=O)NC8=O)cc7)CC6)CC5)nc4)cc23)c1F (stereo not shown) ? 0.48
